Listed below: growth values for each entry.
Test system: SW-620 colon
measurement-description: NCI-60 one-dose screen, 48 h (100 = growth as untreated, 0 = no growth, -100 = all killed)
protocol-conditions: 10 µM unless noted
Compounds without any hit were thinned out: in the full panel of roughly 83,000, 20% have a hit.
Report only the number, with the unit % understood.

Please review the entries below; each comes with its answer.
Brc1ccc(-c2cc(-c3ccc4c(c3)OCCO4)n[nH]2)s1 : 34.7
O=[N+]([O-])c1ccc(NC(=S)NNC(=S)Nc2ccc(Br)cc2)cc1 : 91.1
O=C(/C=C/Nc1ccc(S(=O)(=O)Nc2ncccn2)cc1)c1ccc(N=Cc2c(O)[nH]c3ccccc23)cc1 : 112
CSc1ccc(/C(=N/N=C(N)N)c2ccc(Cl)cc2)cc1 : 2.54
CN1CCN(Cc2ccc(/C=N/Nc3ccnc4cc(Cl)ccc34)cc2)CC1 : 69.9
COc1ccc2[nH]cc(-c3nc(N)nnc3-c3cn(C)c4ccc(Br)cc34)c2c1 : 20.9
Brc1ccc2[nH]cc(-c3nn4cc(-c5nccs5)nc4s3)c2c1 : 25.2
C#CCOc1cccc(/C(N)=N/C(N)=N/c2nc3ccccc3s2)c1 : 105
CCCCCC[n+]1ccc(SCC(=O)n2ccc3ccccc32)c2ccccc21 : 92.1
CCCCN1C(=O)/C(=c2\sc3n(c2=O)C2C(NN=3)N(CC)C(=O)N2CC)c2cc(C)ccc21 (stereo not drawn) : 95.1

Lookup: Suppose we examine the compound O=C1/C(=C/c2cc(F)cc(F)c2)Cc2cc3c(cc21)OCO3 ; what growth value has been reported?
Found: 28.1

Lookup: Also check Cc1csc(/N=C(N)/N=C(\N)c2cccc(Br)c2)n1
Found: 84.4

Lookup: Also check O=C(CCCCCCN1CC(=O)N2[C@@H](c3ccccc3Br)c3[nH]c4ccccc4c3C[C@H]2C1=O)NO
Found: 24.7
